Tested on: HCT116
method: cell viability (CellTiter-Glo) relative to plate median (fraction of plate median); higher = more viable cells
protocolConditions: 5 µM; treatment time 24 h; reporter: TCF4/Wnt
I'd appreciate it if you could supply cell viability values for the items below.
// return a plain number; no unit text

(Q) Value lookup for cell viability; key = Cc1c(C)c2c(c(C)c1O)CCC(C)(CCCC(C)CCCC(C)CCCC(C)C)O2 (stereo not given)
(A) 0.97

(Q) Then what about the molecule O=C(O[C@@H]1Cc2c(O)cc(O)cc2O[C@@H]1c1ccc(O)c(O)c1)c1cc(O)c(O)c(O)c1 ?
(A) 0.805

(Q) Then what about the molecule CC(C)C[C@H]1NC(=O)[C@@H](NC(=O)c2ncccc2O)[C@@H](C)OC(=O)[C@H](c2ccccc2)N(C)C(=O)[C@H](C)NC(=O)[C@H]([C@@H](C)C(C)C)N(C)C(=O)CN(C)C(=O)[C@H]2C[C@@H](O)CN2C1=O ?
(A) 0.954

(Q) Then what about the molecule N=C(N)NS(=O)(=O)c1ccc(N)cc1 ?
(A) 0.892

(Q) Then what about the molecule O=c1cc(CO)occ1O ?
(A) 1.02

(Q) Then what about the molecule CCOC(=O)C1=C[C@]2(CC)CCCN3CCc4c(n1c1ccccc41)[C@@H]32 ?
(A) 1.01

(Q) Then what about the molecule C[C@H]1[C@H](C)CC[C@]2(C(=O)O)CC[C@]3(C)C(=CC[C@@H]4[C@@]5(C)CC[C@H](O)C(C)(C)[C@@H]5CC[C@]43C)[C@H]12 ?
(A) 1.04

(Q) Then what about the molecule O=C(NCO)c1cccnc1 ?
(A) 0.921

(Q) Then what about the molecule CC(=O)NS(=O)(=O)c1ccc(N)cc1 ?
(A) 0.978

(Q) Then what about the molecule COc1ccc([C@@H]2CC(=O)c3c(O)cc(O[C@@H]4O[C@H](CO[C@@H]5O[C@@H](C)[C@H](O)[C@@H](O)[C@H]5O)[C@@H](O)[C@H](O)[C@H]4O)cc3O2)cc1O ?
(A) 0.973

(Q) Then what about the molecule O=c1cc(-c2ccccc2)oc2c(O)c(O)ccc12 ?
(A) 0.969

(Q) Then what about the molecule Nc1ccc(S(=O)(=O)c2ccc(N)cc2)cc1 ?
(A) 0.956

(Q) Then what about the molecule C[C@]12CC[C@@H]3c4ccc(O)cc4CC[C@H]3[C@@H]1CC[C@@H]2O ?
(A) 1.01

(Q) Then what about the molecule CC(=O)Oc1ccccc1C(=O)O ?
(A) 1.02

(Q) Then what about the molecule Cn1nnnc1SCC1=C(C(=O)O)N2C(=O)[C@@H](NC(=O)[C@H](OC=O)c3ccccc3)[C@H]2SC1 ?
(A) 0.932

(Q) Then what about the molecule CCCOc1ccc2[nH]c(NC(=O)OC)nc2c1 ?
(A) 1.08

(Q) Then what about the molecule COCC1=C(C(=O)OC(C)OC(=O)OC(C)C)N2C(=O)[C@@H](NC(=O)/C(=N\OC)c3csc(N)n3)[C@H]2SC1 (stereo not given in full) ?
(A) 1.09

(Q) Then what about the molecule C[C@H]1[C@H](C)CC[C@]2(C(=O)O)CC[C@]3(C)C(=CC[C@@H]4[C@@]5(C)C[C@@H](O)[C@H](O)[C@@](C)(CO)[C@@H]5[C@H](O)C[C@]43C)[C@H]12 ?
(A) 1.09

(Q) Then what about the molecule O=C(O)/C=C(\CC(=O)O)C(=O)O ?
(A) 0.98

(Q) Then what about the molecule COC(=O)C(N)CS (stereo not given) ?
(A) 0.965

(Q) Then what about the molecule NC[C@H]1O[C@H](O[C@H]2[C@H](O)[C@@H](O[C@H]3O[C@H](CO)[C@@H](O)[C@H](N)[C@H]3O)[C@H](N)C[C@@H]2N)[C@H](N)C[C@@H]1O ?
(A) 0.922

(Q) Then what about the molecule Cc1cccc(C)c1OCC(C)N (stereo not given) ?
(A) 0.983

(Q) Then what about the molecule CC[C@H](c1ccc(O)cc1)[C@@H](CC)c1ccc(O)cc1 ?
(A) 1.12

(Q) Then what about the molecule CCC(=O)NCC[C@@H]1CCc2ccc3c(c21)CCO3 ?
(A) 1.15

(Q) Then what about the molecule Nc1nc2c(ncn2[C@@H]2O[C@H](CO)[C@@H](O)[C@H]2O)c(=O)[nH]1 ?
(A) 0.934

(Q) Then what about the molecule OCc1ccccc1O ?
(A) 1.19

(Q) Then what about the molecule O.O.O.O.O=C([O-])CC(O)(CC(=O)[O-])C(=O)[O-].[Li+].[Li+].[Li+] ?
(A) 0.852

(Q) Then what about the molecule COc1ccc2c(=O)ccoc2c1 ?
(A) 0.933

(Q) Then what about the molecule C=CC(C1=CC(=O)C(OC)=CC1=O)c1ccc(OC)cc1 (stereo not given) ?
(A) 1.13

(Q) Then what about the molecule C/C=C(\C)C(=O)O[C@@H]1c2c(ccc3ccc(=O)oc23)OC(C)(C)[C@@H]1OC(C)=O ?
(A) 0.92

(Q) Then what about the molecule COc1cc(/C=C/C(=O)O)ccc1O ?
(A) 1.05

(Q) Then what about the molecule O=S(=O)(O)c1cc(N=C=S)ccc1/C=C/c1ccc(N=C=S)cc1S(=O)(=O)O ?
(A) 0.959

(Q) Then what about the molecule COC[C@H]1O[C@@H](OC2OC[C@@H]3O[C@]4(O[C@H]3[C@H]2OC(=O)C(C)C)O[C@H](C)[C@@](O)(C(C)=O)[C@@H]2OCO[C@H]24)[C@@H](OC)[C@@H](O)[C@@H]1O[C@@H]1O[C@H](C)[C@H](OC)[C@H](O[C@H]2C[C@@]3(C)OC4(C[C@@H](O)[C@H](O[C@H]5C[C@@H](O)[C@H](OC(=O)c6c(C)c(Cl)c(O)c(Cl)c6OC)[C@@H](C)O5)[C@@H](C)O4)O[C@@H]3[C@@H](C)O2)[C@H]1O (stereo not given in full) ?
(A) 1.02

(Q) Then what about the molecule O=c1cc(-c2ccc(O)cc2)oc2cc(O[C@@H]3O[C@H](CO)[C@@H](O)[C@H](O)[C@H]3O)cc(O)c12 ?
(A) 1.06

(Q) Then what about the molecule C1CCN2C[C@@H]3C[C@H](CN4CCCC[C@@H]34)[C@H]2C1 ?
(A) 0.986

The values you see were collected from the supplement of paper PMC6522484.
